Attribution: ChEMBL document CHEMBL1124601

assay: The dissociation constant at pH 8 using potentiometric titration in 100 uM of compound in 0.15 M KCl at 25 degree Centigrade; type: ADME; conditions: 0.15 M KCl solution

{"chemical-smiles": "COC1=C(N)C(=O)c2nc(-c3nc(C(=O)O)c(C)c(-c4ccc(OC)c(OC)c4O)c3N)ccc2C1=O", "pKa at 100 µM": 6.6}
